Biological target: Mitogen-activated protein kinase kinase kinase 8 (Homo sapiens, UniProt P41279)
Sequence (P41279 whole entry): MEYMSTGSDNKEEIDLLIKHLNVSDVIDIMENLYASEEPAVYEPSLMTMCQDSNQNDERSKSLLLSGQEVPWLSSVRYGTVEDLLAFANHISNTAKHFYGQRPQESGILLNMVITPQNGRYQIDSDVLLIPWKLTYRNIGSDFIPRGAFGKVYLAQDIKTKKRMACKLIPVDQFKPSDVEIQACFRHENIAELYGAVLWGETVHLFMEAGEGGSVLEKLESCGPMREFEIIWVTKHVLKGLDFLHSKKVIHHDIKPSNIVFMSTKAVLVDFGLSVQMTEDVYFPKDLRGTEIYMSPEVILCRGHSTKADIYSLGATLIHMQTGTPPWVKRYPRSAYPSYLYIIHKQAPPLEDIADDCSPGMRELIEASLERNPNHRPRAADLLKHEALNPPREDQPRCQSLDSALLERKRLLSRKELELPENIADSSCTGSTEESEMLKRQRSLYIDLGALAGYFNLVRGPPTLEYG
Test: Inhibition of COT
recorded_metric: Ki

Ki reading for `CNc1cncc(-c2c[nH]c(=O)c(NC(=O)c3ccc(N4CCC[C@H]4CN4CCCC4)cc3)c2)n1` : > 1000 nM

---

Target: Mitogen-activated protein kinase kinase kinase 7 (Homo sapiens)
Sequence (O43318 whole entry): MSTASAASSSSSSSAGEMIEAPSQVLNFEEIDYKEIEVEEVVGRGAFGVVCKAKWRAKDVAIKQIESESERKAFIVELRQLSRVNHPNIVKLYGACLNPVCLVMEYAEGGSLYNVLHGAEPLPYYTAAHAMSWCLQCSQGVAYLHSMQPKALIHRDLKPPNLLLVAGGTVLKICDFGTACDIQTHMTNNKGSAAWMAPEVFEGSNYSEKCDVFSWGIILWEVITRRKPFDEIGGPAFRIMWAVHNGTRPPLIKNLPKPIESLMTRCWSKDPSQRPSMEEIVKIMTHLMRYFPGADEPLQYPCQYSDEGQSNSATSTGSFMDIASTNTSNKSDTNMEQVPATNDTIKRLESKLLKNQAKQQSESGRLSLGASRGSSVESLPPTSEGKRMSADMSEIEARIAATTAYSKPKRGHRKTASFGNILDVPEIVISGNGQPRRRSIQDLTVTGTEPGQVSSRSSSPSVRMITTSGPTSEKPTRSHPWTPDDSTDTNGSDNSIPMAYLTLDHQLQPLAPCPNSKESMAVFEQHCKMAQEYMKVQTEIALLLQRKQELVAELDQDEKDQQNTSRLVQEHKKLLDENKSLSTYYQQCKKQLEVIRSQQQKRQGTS
Test: Inhibition of TAK1
recorded_metric: pKi
// pKi: -log10(molar conc.)

The recorded pKi for `CNc1cncc(-c2c[nH]c(=O)c(NC(=O)c3ccc(N4CCC[C@H]4CN4CCCC4)cc3)c2)n1` is 6.07

---

Target: Proto-oncogene tyrosine-protein kinase ROS (Homo sapiens)
Sequence (P08922 whole entry): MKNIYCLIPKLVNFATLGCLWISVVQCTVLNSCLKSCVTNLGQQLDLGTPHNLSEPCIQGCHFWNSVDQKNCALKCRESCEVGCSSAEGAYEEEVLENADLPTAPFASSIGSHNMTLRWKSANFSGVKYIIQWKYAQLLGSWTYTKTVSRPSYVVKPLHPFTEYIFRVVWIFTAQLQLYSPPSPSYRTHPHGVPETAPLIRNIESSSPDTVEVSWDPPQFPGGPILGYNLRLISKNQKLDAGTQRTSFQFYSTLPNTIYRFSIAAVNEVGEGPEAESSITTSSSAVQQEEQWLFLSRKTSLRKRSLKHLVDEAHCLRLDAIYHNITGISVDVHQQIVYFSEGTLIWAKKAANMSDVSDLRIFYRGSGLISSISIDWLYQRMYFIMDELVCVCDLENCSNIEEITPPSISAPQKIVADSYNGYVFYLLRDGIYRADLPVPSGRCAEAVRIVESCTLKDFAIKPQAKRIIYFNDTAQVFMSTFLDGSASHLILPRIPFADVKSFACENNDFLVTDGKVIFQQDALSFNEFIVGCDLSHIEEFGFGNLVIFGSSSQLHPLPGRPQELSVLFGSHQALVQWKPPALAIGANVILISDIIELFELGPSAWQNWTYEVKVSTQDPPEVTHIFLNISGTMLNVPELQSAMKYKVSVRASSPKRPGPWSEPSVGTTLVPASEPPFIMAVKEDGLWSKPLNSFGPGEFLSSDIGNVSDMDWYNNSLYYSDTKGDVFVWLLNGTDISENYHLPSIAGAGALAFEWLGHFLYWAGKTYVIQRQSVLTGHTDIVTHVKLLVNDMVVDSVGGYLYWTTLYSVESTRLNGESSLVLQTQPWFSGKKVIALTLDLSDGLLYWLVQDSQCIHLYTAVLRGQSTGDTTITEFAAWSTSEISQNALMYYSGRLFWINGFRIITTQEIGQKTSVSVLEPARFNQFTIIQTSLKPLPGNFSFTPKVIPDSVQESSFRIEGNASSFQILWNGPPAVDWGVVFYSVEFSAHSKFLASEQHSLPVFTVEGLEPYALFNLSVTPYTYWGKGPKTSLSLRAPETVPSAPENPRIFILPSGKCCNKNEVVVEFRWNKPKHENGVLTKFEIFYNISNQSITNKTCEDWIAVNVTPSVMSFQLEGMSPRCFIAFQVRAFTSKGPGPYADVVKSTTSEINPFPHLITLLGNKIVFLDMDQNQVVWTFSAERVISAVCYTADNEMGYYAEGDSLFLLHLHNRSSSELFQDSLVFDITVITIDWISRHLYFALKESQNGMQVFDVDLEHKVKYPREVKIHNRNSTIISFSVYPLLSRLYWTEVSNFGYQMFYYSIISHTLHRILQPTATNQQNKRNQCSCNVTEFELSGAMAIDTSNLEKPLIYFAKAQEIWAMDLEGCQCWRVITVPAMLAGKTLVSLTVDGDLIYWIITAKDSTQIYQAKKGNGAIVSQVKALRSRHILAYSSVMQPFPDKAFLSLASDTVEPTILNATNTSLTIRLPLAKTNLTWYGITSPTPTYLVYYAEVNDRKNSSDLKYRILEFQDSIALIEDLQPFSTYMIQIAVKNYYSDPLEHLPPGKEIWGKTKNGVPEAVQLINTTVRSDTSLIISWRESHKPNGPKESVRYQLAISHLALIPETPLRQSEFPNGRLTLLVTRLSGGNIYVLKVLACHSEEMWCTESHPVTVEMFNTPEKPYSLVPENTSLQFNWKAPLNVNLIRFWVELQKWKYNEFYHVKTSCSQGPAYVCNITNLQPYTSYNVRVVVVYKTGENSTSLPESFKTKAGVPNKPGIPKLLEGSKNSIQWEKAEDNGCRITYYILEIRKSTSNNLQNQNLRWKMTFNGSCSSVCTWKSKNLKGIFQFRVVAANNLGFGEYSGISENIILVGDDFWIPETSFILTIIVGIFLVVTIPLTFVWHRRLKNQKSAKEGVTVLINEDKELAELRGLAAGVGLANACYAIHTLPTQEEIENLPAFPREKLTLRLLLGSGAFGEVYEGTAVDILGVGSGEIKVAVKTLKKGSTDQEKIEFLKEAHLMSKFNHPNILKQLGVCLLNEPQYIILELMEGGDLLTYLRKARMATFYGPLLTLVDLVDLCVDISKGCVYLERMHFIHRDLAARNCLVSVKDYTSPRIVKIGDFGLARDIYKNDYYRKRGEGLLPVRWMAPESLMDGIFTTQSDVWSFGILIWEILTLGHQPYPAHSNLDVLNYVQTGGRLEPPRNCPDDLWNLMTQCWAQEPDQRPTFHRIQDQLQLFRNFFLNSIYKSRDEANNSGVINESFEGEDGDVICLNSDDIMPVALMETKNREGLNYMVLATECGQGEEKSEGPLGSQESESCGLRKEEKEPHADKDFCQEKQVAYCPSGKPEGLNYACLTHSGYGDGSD
recorded_metric: Ki

compound `CNc1cncc(-c2c[nH]c(=O)c(NC(=O)c3ccc(N4CCC[C@H]4CN4CCCC4)cc3)c2)n1` , Ki observed: > 1 µM

---

Molecular target: Mast/stem cell growth factor receptor Kit (Homo sapiens)
Sequence (P10721 whole entry): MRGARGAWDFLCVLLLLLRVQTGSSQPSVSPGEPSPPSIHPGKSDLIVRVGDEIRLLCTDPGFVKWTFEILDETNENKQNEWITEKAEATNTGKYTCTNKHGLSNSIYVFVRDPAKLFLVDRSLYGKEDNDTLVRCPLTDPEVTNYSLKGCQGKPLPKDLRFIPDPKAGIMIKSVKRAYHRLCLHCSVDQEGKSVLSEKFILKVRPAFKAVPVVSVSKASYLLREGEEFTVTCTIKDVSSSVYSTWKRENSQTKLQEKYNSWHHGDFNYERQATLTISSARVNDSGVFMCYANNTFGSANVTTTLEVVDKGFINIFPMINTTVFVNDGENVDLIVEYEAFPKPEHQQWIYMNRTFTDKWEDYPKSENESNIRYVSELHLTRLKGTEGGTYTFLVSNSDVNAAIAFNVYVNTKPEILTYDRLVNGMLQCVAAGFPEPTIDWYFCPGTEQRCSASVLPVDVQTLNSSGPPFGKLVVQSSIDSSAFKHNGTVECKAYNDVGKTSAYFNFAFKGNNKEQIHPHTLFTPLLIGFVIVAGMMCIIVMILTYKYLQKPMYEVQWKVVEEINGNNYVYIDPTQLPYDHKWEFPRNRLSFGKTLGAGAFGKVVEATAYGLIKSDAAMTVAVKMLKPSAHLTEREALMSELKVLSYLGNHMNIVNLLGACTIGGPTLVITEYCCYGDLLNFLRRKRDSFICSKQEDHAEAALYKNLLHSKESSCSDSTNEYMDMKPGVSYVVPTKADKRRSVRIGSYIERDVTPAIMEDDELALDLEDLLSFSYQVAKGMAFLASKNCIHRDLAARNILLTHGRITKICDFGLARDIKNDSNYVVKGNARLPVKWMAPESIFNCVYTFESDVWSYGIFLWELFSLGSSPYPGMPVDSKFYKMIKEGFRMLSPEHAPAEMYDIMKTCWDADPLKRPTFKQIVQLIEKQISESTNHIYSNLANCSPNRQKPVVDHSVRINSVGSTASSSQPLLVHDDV
Assay: Inhibition of c-Kit after 45 mins by radiometric phosphate incorporation assay
recorded_metric: Ki (nM)
State just the number; it will be interpreted in nM.

Study these solved cases before continuing.
CNc1cc(C#N)cc(-c2c[nH]c(=O)c(NC(=O)c3ccc(N4CCC[C@H]4CN4CCCC4)cc3)c2)c1	400
CNc1cc(-c2c[nH]c(=O)c(NC(=O)c3ccc(N4CCCCC4)cc3)c2)ccn1	12
CNc1cccc(-c2c[nH]c(=O)c(NC(=O)c3ccc(N4CCCCC4)cc3)c2)n1	148
CNc1cncc(-c2c[nH]c(=O)c(NC(=O)c3ccc(N4CCC[C@H]4CN4CCCC4)cc3)c2)n1	200
CNc1cc(F)cc(-c2c[nH]c(=O)c(NC(=O)c3ccc(N4CCC[C@H]4CN4CCCC4)cc3)c2)c1	400

What the record says about `CNc1cncc(-c2c[nH]c(=O)c(NC(=O)c3ccc(N4CCC[C@H]4CN4CCCC4)cc3)c2)c1` : Ki is 1300
